PROTOCOL_SUMMARY: AUC (0 to infinity) in healthy human plasma at 200 mg, po once daily for 3 days measured after 3 days
Type: ADME, organism-based
Design: dose 200 mg, route oral, time infinity
QUANTITY_MEASURED: AUC(0-inf) (ng·h/mL)
Numbers only, in ng·h/mL.

Please fill in: AUC(0-inf) reported for CC[C@H]1OC(=O)[C@H](C)C(=O)[C@H](C)[C@@H](O[C@@H]2O[C@H](C)C[C@H](N(C)C)[C@H]2O)[C@@]2(C)C[C@@H](C)/C(=N\C(C)=O)[C@H](C)[C@@H](OC/C(=N\OCc3ccc(-n4cccn4)nc3)CO2)[C@]1(C)O = 16400

###

PROTOCOL_SUMMARY: AUC (0 to infinity) in 8 hrs fasted healthy human plasma at 200 mg, po administered as single dose of two-100 mg capsules
Type: ADME, organism-based
Parameters: dose 200 mg, route oral, time infinity
QUANTITY_MEASURED: AUC(0-inf)
Number first, unit second: that is the form wanted.

Please fill in: AUC(0-inf) reported for CC[C@H]1OC(=O)[C@H](C)C(=O)[C@H](C)[C@@H](O[C@@H]2O[C@H](C)C[C@H](N(C)C)[C@H]2O)[C@@]2(C)C[C@@H](C)/C(=N\C(C)=O)[C@H](C)[C@@H](OC/C(=N\OCc3ccc(-n4cccn4)nc3)CO2)[C@]1(C)O [MODITHROMYCIN] = 9030 ng·h/mL

###

PROTOCOL_SUMMARY: Drug concentration in Alveolar macrophage of healthy human at 400 mg, po administered as single dose after 24 hrs
Format: ADME, organism-based
PARTICULARS: alveolar macrophages, read-out: Drug uptake
QUANTITY_MEASURED: concentration at 24 h

Please fill in: concentration at 24 h reported for CC[C@H]1OC(=O)[C@H](C)C(=O)[C@H](C)[C@@H](O[C@@H]2O[C@H](C)C[C@H](N(C)C)[C@H]2O)[C@@]2(C)C[C@@H](C)/C(=N\C(C)=O)[C@H](C)[C@@H](OC/C(=N\OCc3ccc(-n4cccn4)nc3)CO2)[C@]1(C)O = 68 µg/mL

###

PROTOCOL_SUMMARY: Half life in high-fat fed healthy human plasma at 200 mg, po administered as single dose of two-100 mg capsules
Type: ADME, organism-based
QUANTITY_MEASURED: half-life (h)
Answers are plain numbers, in h.

Please fill in: half-life reported for CC[C@H]1OC(=O)[C@H](C)C(=O)[C@H](C)[C@@H](O[C@@H]2O[C@H](C)C[C@H](N(C)C)[C@H]2O)[C@@]2(C)C[C@@H](C)/C(=N\C(C)=O)[C@H](C)[C@@H](OC/C(=N\OCc3ccc(-n4cccn4)nc3)CO2)[C@]1(C)O = 16.9

###

PROTOCOL_SUMMARY: Tmax in healthy human plasma at 200 mg, po once daily for 3 days measured after 1 day
Assay type: ADME, organism-based
QUANTITY_MEASURED: Tmax
Number first, unit second: that is the form wanted.

Please fill in: Tmax reported for CC[C@H]1OC(=O)[C@H](C)C(=O)[C@H](C)[C@@H](O[C@@H]2O[C@H](C)C[C@H](N(C)C)[C@H]2O)[C@@]2(C)C[C@@H](C)/C(=N\C(C)=O)[C@H](C)[C@@H](OC/C(=N\OCc3ccc(-n4cccn4)nc3)CO2)[C@]1(C)O = 3.5 h

###

PROTOCOL_SUMMARY: Cmax in healthy human plasma at 400 mg administered once on day 1 followed by 200 mg once daily for 2 days during 3 days of treatment measured after 3 days
Format: ADME, organism-based
Set-up: dose 400 mg
QUANTITY_MEASURED: Cmax
Number first, unit second: that is the form wanted.

Please fill in: Cmax reported for CC[C@H]1OC(=O)[C@H](C)C(=O)[C@H](C)[C@@H](O[C@@H]2O[C@H](C)C[C@H](N(C)C)[C@H]2O)[C@@]2(C)C[C@@H](C)/C(=N\C(C)=O)[C@H](C)[C@@H](OC/C(=N\OCc3ccc(-n4cccn4)nc3)CO2)[C@]1(C)O = 0.514 µg/mL

###

PROTOCOL_SUMMARY: AUC (0 to infinity) in healthy human plasma at 400 mg administered once on day 1 followed by 200 mg once daily for 2 days during 3 days of treatment measured after 3 days
Assay type: ADME, organism-based
Parameters: dose 400 mg, time infinity
QUANTITY_MEASURED: AUC(0-inf)
Number first, unit second: that is the form wanted.

Please fill in: AUC(0-inf) reported for CC[C@H]1OC(=O)[C@H](C)C(=O)[C@H](C)[C@@H](O[C@@H]2O[C@H](C)C[C@H](N(C)C)[C@H]2O)[C@@]2(C)C[C@@H](C)/C(=N\C(C)=O)[C@H](C)[C@@H](OC/C(=N\OCc3ccc(-n4cccn4)nc3)CO2)[C@]1(C)O = 15.1 µg·h/mL

###

PROTOCOL_SUMMARY: Half life in 8 hrs fasted healthy human plasma at 200 mg, po administered as single dose of two-100 mg capsules
Format: ADME, organism-based
QUANTITY_MEASURED: half-life (h)
Give bare numbers, in h.

Please fill in: half-life reported for CC[C@H]1OC(=O)[C@H](C)C(=O)[C@H](C)[C@@H](O[C@@H]2O[C@H](C)C[C@H](N(C)C)[C@H]2O)[C@@]2(C)C[C@@H](C)/C(=N\C(C)=O)[C@H](C)[C@@H](OC/C(=N\OCc3ccc(-n4cccn4)nc3)CO2)[C@]1(C)O = 16.9

###

PROTOCOL_SUMMARY: AUC (0 to last) in high-fat fed healthy human plasma at 200 mg, po administered as single dose of two-100 mg capsules
Assay type: ADME, organism-based
Design: dose 200 mg, time 0 - last, route oral
QUANTITY_MEASURED: AUC(0-t)
Number first, unit second: that is the form wanted.

Please fill in: AUC(0-t) reported for CC[C@H]1OC(=O)[C@H](C)C(=O)[C@H](C)[C@@H](O[C@@H]2O[C@H](C)C[C@H](N(C)C)[C@H]2O)[C@@]2(C)C[C@@H](C)/C(=N\C(C)=O)[C@H](C)[C@@H](OC/C(=N\OCc3ccc(-n4cccn4)nc3)CO2)[C@]1(C)O = 8940 ng·h/mL

###

PROTOCOL_SUMMARY: AUC (0 to 24 hrs) in Epithelial lining fluid of healthy human at 400 mg, po administered as single dose
Assay type: ADME, organism-based
PARTICULARS: read-out: Drug uptake
QUANTITY_MEASURED: AUC (µg·h/mL)
Answers are plain numbers, in µg·h/mL.

Please fill in: AUC reported for CC[C@H]1OC(=O)[C@H](C)C(=O)[C@H](C)[C@@H](O[C@@H]2O[C@H](C)C[C@H](N(C)C)[C@H]2O)[C@@]2(C)C[C@@H](C)/C(=N\C(C)=O)[C@H](C)[C@@H](OC/C(=N\OCc3ccc(-n4cccn4)nc3)CO2)[C@]1(C)O [MODITHROMYCIN] = 212

###

PROTOCOL_SUMMARY: AUC (0 to last) in healthy human plasma at loading dose of 400 mg/day, po once daily for 3 days measured after 1 day
Assay type: ADME, organism-based
Design: dose 400 mg/day, time 0 - last, route oral
QUANTITY_MEASURED: AUC(0-t) at 24 h (ng·h/mL)
Numbers only, in ng·h/mL.

Please fill in: AUC(0-t) at 24 h reported for CC[C@H]1OC(=O)[C@H](C)C(=O)[C@H](C)[C@@H](O[C@@H]2O[C@H](C)C[C@H](N(C)C)[C@H]2O)[C@@]2(C)C[C@@H](C)/C(=N\C(C)=O)[C@H](C)[C@@H](OC/C(=N\OCc3ccc(-n4cccn4)nc3)CO2)[C@]1(C)O = 8100

###

PROTOCOL_SUMMARY: Tmax in healthy human plasma at 200 mg, po once daily for 3 days measured after 3 days
Type: ADME, organism-based
QUANTITY_MEASURED: Tmax (h)
Numbers only, in h.

Please fill in: Tmax reported for CC[C@H]1OC(=O)[C@H](C)C(=O)[C@H](C)[C@@H](O[C@@H]2O[C@H](C)C[C@H](N(C)C)[C@H]2O)[C@@]2(C)C[C@@H](C)/C(=N\C(C)=O)[C@H](C)[C@@H](OC/C(=N\OCc3ccc(-n4cccn4)nc3)CO2)[C@]1(C)O [MODITHROMYCIN] = 3.25

###

PROTOCOL_SUMMARY: AUC (0 to last) in 8 hrs fasted healthy human plasma at 200 mg, po administered as single dose of two-100 mg capsules
Assay type: ADME, organism-based
Set-up: dose 200 mg, route oral, time 0 - last
QUANTITY_MEASURED: AUC(0-t) (ng·h/mL)
Answers are plain numbers, in ng·h/mL.

Please fill in: AUC(0-t) reported for CC[C@H]1OC(=O)[C@H](C)C(=O)[C@H](C)[C@@H](O[C@@H]2O[C@H](C)C[C@H](N(C)C)[C@H]2O)[C@@]2(C)C[C@@H](C)/C(=N\C(C)=O)[C@H](C)[C@@H](OC/C(=N\OCc3ccc(-n4cccn4)nc3)CO2)[C@]1(C)O = 8940
